Test system: BRAF
Conditions: Compound Concentration (nM):1000;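 note: KINOMEscan scanMAX binding as percent activity remaining versus control; lower means stronger binding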
Reported Percent Control by item:
result.type: Percent Control (%)

> print(dat)
                                   molecule  system.name      result.type  readout.number
1  O=C(Nc1n[nH]c2nc(-c3ccc(O)cc3)c(Br)cc12)C1CC1         BRAF  Percent Control              17
2  COc1cc(/C=N/Nc2ncnc3[nH]ncc23)ccc1O [GW578748X]         BRAF  Percent Control              35
3  COc1ccc(COc2ccc(Cc3cnc(N)nc3N)cc2OC)cc1 [GW632580X]         BRAF  Percent Control             100
4  Nc1ncnc2occ(-c3ccc(NC(=O)Nc4cc(C(F)(F)F)ccc4F)cc3)c12 [GW770249X]         BRAF  Percent Control              28
5  NS(=O)(=O)c1ccc(N/N=C2\C(=O)Nc3ccc(C(=O)NCCc4c[nH]cn4)cc32)cc1 [GW300660X]         BRAF  Percent Control             100
6  CN(C)c1cc2c(Nc3ccc4c(cnn4Cc4ccccc4)c3)ncnc2cn1 [GW282974X]         BRAF  Percent Control              92
7  Cl.O=C(O[C@H]1CN[C@H](C#Cc2cc3ncnc(Nc4ccc5c(cnn5Cc5ccccc5)c4)c3s2)C1)N1CCOCC1 [GSK200398A]         BRAF  Percent Control              91
8  COc1cc(C)c(N(C)C(=O)CN(C)C)cc1Nc1nc(Nc2cccc(F)c2C(N)=O)c2cc[nH]c2n1         BRAF  Percent Control              72
9  Cc1cc(O)cc(C)c1/C=C/c1cncc(C(N)=O)c1 [GW435821X]         BRAF  Percent Control              23

====

Collected Percent Control values appear next to each entry.
Test system: RIPK5
Construct: gene DSTYK
Settings: Compound Concentration (nM):1000
result.type: Percent Control (%)

> print(dat)
                                   compound      result.type  units.text  readout.number
1  COc1cccc(-c2c[nH]c3c(N/N=C/c4ccncc4)ncnc23)c1 [GW814408X]  Percent Control           %             100
2  Cc1cc(O)cc(C)c1/C=C/c1cncc(C(N)=O)c1 [GW435821X]  Percent Control           %              93
3  Nc1ncnc2occ(-c3ccc(NC(=O)Nc4cc(C(F)(F)F)ccc4F)cc3)c12 [GW770249X]  Percent Control           %              80
4  CCn1c(-c2nonc2N)nc2c(C#CC(C)(C)O)nc(OCCNC)cc21.Cl  Percent Control           %              99
5  CC1=C(C(=O)Nc2ccc3[nH]ncc3c2)C(c2ccc(Cl)c(Cl)c2)CC(=O)N1 (centres unmarked) [GSK299115A]  Percent Control           %              99
6  COc1cc(N2CCN(C(C)C)CC2)ccc1Nc1nc(Nc2ccc(F)cc2C(=O)NC[C@@H](O)CO)c2cc[nH]c2n1 [GSK1392956A]  Percent Control           %              25
7  COc1ccccc1-c1cc(/C=C2\C(=O)Nc3ncc(Br)cc32)cc(Br)c1O [GW442130X]  Percent Control           %             100
8  Cl.c1ccc(Cc2nc3ccc(Nc4ncnc5ccccc45)cc3[nH]2)cc1 [GR269666A]  Percent Control           %              98

====

System: MYLK2
Conditions: Compound Concentration (nM):1000
result.type: Percent Control (%)

> print(dat)
                                   compound  readout.number
1  CCS(=O)(=O)c1ccc(OC)c(Nc2ncc(-c3cccc(F)c3)o2)c1 [GW621970X]              98
2  CN1CCN(C(=O)c2ccc(NC(=O)Nc3ccc(N(C)c4ccnc(Nc5ccc(CS(C)(=O)=O)cc5)n4)cc3)cc2)CC1.Cl [GW830263A]              36
3  Cl.O=S1CCN(Cc2ccc(-c3ccc4ncnc(Nc5ccc(OCc6ccccc6)c(F)c5)c4c3)o2)CC1 [GW576924A]             100
4  O=C1Nc2ccc(C(=O)c3ccco3)cc2C1=Cc1cc(Cl)c(O)c(Cl)c1 [GW406108X]             100
5  NS(=O)(=O)c1ccc(N/N=C2\C(=O)Nc3ccc(-c4cnco4)cc32)cc1 [GW276655]              73
6  COc1ccccc1-c1cc(/C=C2\C(=O)Nc3ncc(Br)cc32)cc(Br)c1O [GW442130X]              97

====

Tested on: LTK
Settings: Compound Concentration (nM):1000
result.type: Percent Control (%)

> print(dat)
                                    molecule      result.type  readout.number
 1  Cl.c1ccc(Cc2nc3ccc(Nc4ncnc5ccccc45)cc3[nH]2)cc1 [GR269666A]  Percent Control             100
 2  COc1cccc(-c2c[nH]c3c(N/N=C/c4ccncc4)ncnc23)c1 [GW814408X]  Percent Control              98
 3  COc1cccc(-n2ncc3c(N/N=C/c4ccncc4)ncnc32)c1 [GW784752X]  Percent Control             100
 4  Cl.O=S1CCN(Cc2ccc(-c3ccc4ncnc(Nc5ccc(OCc6ccccc6)c(F)c5)c4c3)o2)CC1 [GW576924A]  Percent Control             100
 5  O=C1Nc2ccc(C(=O)c3ccco3)cc2C1=Cc1cc(Cl)c(O)c(Cl)c1 [GW406108X]  Percent Control              93
 6  Cc1cc(O)cc(C)c1/C=C/c1cncc(C(N)=O)c1 [GW435821X]  Percent Control             100
 7  Cl.O=C(O[C@H]1CN[C@H](C#Cc2cc3ncnc(Nc4ccc5c(cnn5Cc5ccccc5)c4)c3s2)C1)N1CCOCC1 [GSK200398A]  Percent Control              85
 8  COc1cc(C)c(N(C)C(=O)CN(C)C)cc1Nc1nc(Nc2cccc(F)c2C(N)=O)c2cc[nH]c2n1  Percent Control              74
 9  Cl.O=C(Nc1ccc(Oc2ccc3[nH]c(NC(=O)c4ccco4)nc3c2)cc1)Nc1cc(C(F)(F)F)ccc1F [GW683134A]  Percent Control             6.2
10  NS(=O)(=O)c1ccc(Nc2ncc(-c3ccccc3)o2)cc1 [GW572399X]  Percent Control             100
11  COc1cc2ncn(-c3cc(O[C@H](C)c4ccccc4Cl)c(C(N)=O)s3)c2cc1OC [GSK237701A]  Percent Control              26
12  NS(=O)(=O)c1ccc(N/N=C2\C(=O)Nc3ccc(Cl)cc32)cc1 [GW280670X]  Percent Control             100
13  COc1cc2ncnc(Nc3ccc4c(cnn4Cc4ccccc4)c3)c2cc1OC.Cl [GW282449A]  Percent Control              46
14  CC1=C(C(=O)Nc2ccc3[nH]ncc3c2)C(c2ccc3ccccc3c2)CC(=O)N1 (stereo not drawn) [GSK270822A]  Percent Control             100
15  CN1CCN(C(=O)c2ccc(NC(=O)Nc3ccc(N(C)c4ccnc(Nc5ccc(CS(C)(=O)=O)cc5)n4)cc3)cc2)CC1.Cl [GW830263A]  Percent Control              85

====

Tested on: TNIK
Settings: Compound Concentration (nM):1000
result.type: Percent Control (%)

> print(dat)
                                    molecule      result.type  units.text  readout.number
 1  COc1ccc2cc(-c3c(-c4ccncc4)nc(-c4ccc(S(C)(=O)=O)cc4C)n3C)ccc2c1 [SB-633825]  Percent Control           %              54
 2  COc1cccc(-c2c[nH]c3c(N/N=C/c4ccncc4)ncnc23)c1 [GW814408X]  Percent Control           %              51
 3  Nc1ncnc2occ(-c3ccc(NC(=O)Nc4cc(C(F)(F)F)ccc4F)cc3)c12 [GW770249X]  Percent Control           %              59
 4  CCS(=O)(=O)c1ccc(OC)c(Nc2ncc(-c3cccc(F)c3)o2)c1 [GW621970X]  Percent Control           %              82
 5  CN1CCN(C(=O)c2ccc(NC(=O)Nc3ccc(N(C)c4ccnc(Nc5ccc(CS(C)(=O)=O)cc5)n4)cc3)cc2)CC1.Cl [GW830263A]  Percent Control           %              23
 6  COc1cc(C=NNc2ncnc3c2cnn3-c2ccccc2)ccc1O [GW513184X]  Percent Control           %              84
 7  COC(=O)Nc1nc2ccc(Oc3ccc(NC(=O)Nc4cc(C(F)(F)F)ccc4F)cc3)cc2s1.Cl [GW693917A]  Percent Control           %              74
 8  Cl.O=S1CCN(Cc2ccc(-c3ccc4ncnc(Nc5ccc(OCc6ccccc6)c(F)c5)c4c3)o2)CC1 [GW576924A]  Percent Control           %             100
 9  COc1ccc2c(-c3ccnc(Nc4cccc(OC(F)(F)F)c4)n3)cnn2n1 [GW810372X]  Percent Control           %             100
10  Cl.O=C(O[C@H]1CN[C@H](C#Cc2cc3ncnc(Nc4ccc5c(cnn5Cc5ccccc5)c4)c3s2)C1)N1CCOCC1 [GSK200398A]  Percent Control           %              96
11  COc1ccc2[nH]c3c4[nH]c5ccc(OC)cc5c4c4c(c3c2c1)C(=O)NC4=O [GW296115X]  Percent Control           %               3
12  CCn1c(-c2nonc2N)nc2c(C#CC(C)(C)O)nc(OCCNC)cc21.Cl [GSK949675]  Percent Control           %             100
13  CCS(=O)(=O)c1ccc(OC)c(Nc2ncc(-c3cccc(OC)c3)o2)c1 [GW580509X]  Percent Control           %              75
14  O=C1Nc2ccc(C(=O)c3ccco3)cc2C1=Cc1cc(Cl)c(O)c(Cl)c1 [GW406108X]  Percent Control           %              24
15  NS(=O)(=O)c1ccc(N/N=C2\C(=O)Nc3ccc(-c4cnco4)cc32)cc1 [GW276655]  Percent Control           %              26
16  NS(=O)(=O)c1ccc(N/N=C2\C(=O)Nc3ccc(C(=O)NCCc4c[nH]cn4)cc32)cc1 [GW300660X]  Percent Control           %             100
17  COc1cc(C)c(N(C)C(=O)CN(C)C)cc1Nc1nc(Nc2cccc(F)c2C(N)=O)c2cc[nH]c2n1 [GSK2219385]  Percent Control           %              98
18  NS(=O)(=O)c1ccc(Nc2ncc(-c3ccccc3)o2)cc1 [GW572399X]  Percent Control           %              52

Values from paper PMC7826789
